# subjectOfTest: T1, human CD40 extracellular domain with C-terminal His-AviTag (human, UniProt P25942 21-193)
# T1 construct: not shown: C-terminal His-AviTag
# protocol: SPR, antibody captured, CD40 ECD analyte;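 note: biacore SPR at 25 °C in PBS-T pH 7.4, CD40 ECD analyte from 300 nM in 1:3 series, 300 s association, up to 1200 s dissociation, double-referenced, Langmuir 1:1 fit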
Reported kon values are given for each entry in this list.
The reply should contain only the number, in M⁻¹ s⁻¹.

[
  {
    "binder": "P1AE1000, humanized anti-CD40 antibody VH1d/VL1c, huIgG1_LALA_PG (antibody, V domains shown, huIgG1 with effector silent Fc (P329G, L234A, L235A)) VH: QVQLVQSGAEVKKPGASVKVSCKASGYSFTGYYIHWVRQAPGQSLEWMGRVIPNAGGTSYNQKFKGRVTLSVDKSISTAYMELSRLRSDDTAVYYCAREGIYWWGQGTTVTVSS VL: DVVVTQTPLSLSVTPGQPASISCRSSQSLVHSNGNTFLHWYLQKPGQSPQLLIYTVSNRFSGVPDRFSGSGSGTDFTLKISRVEAEDVGVYFCSQTTHVPWTFGGGTKVEIK",
    "kon, M⁻¹ s⁻¹": "2.68e+06"
  }
]

Supply reported kon belonging to this binder: P1AE0817, humanized anti-CD40 antibody VH1a/VL1a, huIgG1_LALA_PG (antibody, V domains shown) VH: QVQLVQSGAEVKKPGASVKVSCKASGYSFTGYYIHWVRQAPGQSLEWMGRVIPNAGGTSYNQKFKGRVTLTVDKSISTAYMELSRLRSDDTAVYYCAREGIYWWGQGTTVTVSS VL: DIVMTQTPLSLSVTPGQPASISCRSSQSLVHSNGNTFLHWYLQKPGQSPQLLIYTVSNRFSGVPDRFSGSGSGTDFTLKISRVEAEDVGVYFCSQTTHVPWTFGGGTKVEIKR
2.4e+06

Consider the binder P1AE0405, humanized anti-CD40 antibody VH2b/VL2b, huIgG1_LALA_PG (antibody, V domains shown, huIgG1 with effector silent Fc (P329G, L234A, L235A); also called VL2b/VH2b) VH: EVQLLESGGGLVQPGGSLRLSCAASGYSFTGYYIHWVRQAPGKSLEWVGRVIPNAGGTSYNQKFKGRFTISVDNSKNTAYLQMNSLRAEDTAVYYCAREGIYWWGQGTTVTVSS VL: DIQMTQSPSSLSASVGDRVTITCRSSQSLVHSNGNTFLHWYQQKPGQSPKLLIYTVSNRFSGVPSRFSGSGSGTDFTLTISSLQPEDFATYFCSQTTHVPWTFGGGTKVEIK and give its recorded kon.
1.61e+06

Where do the numbers come from? From patent US20250320305A1.
